B1: NCF4 (parent)
chain: FVKILKDFPEEDDPTNWLRCYYYE

variants of: B1; assay: protein stability index of a GFP-peptide fusion (GPS, HEK-293T) (PSI 1-6); higher = more stable; details: c terminus: a fixed tail appended;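 note: lentivirally expressed fusions sorted by FACS into six bins by GFP to DsRed ratio, PSI derived from sequencing read proportions per bin multiplied by bin number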
We use 2 as the dividing line for protein stability index: on or above the line is Met, below is Not met.

In: Record N16H ; criterion: protein stability index no lower than 2. Met?
Out: Met

In: Tell me whether protein stability index is at least 2 here: Y21V
Out: Met

In: In plain terms: is recorded protein stability index at least 2 for K3P ?
Out: Met

In: Is the recorded value of protein stability index equal to or greater than 2 for this variant? W17E
Out: Not met

In: API: above_or_equal(metric=protein stability index, cutoff=2) for item Y22N
Out: Not met

In: Would you say D12P shows protein stability index at minimum 2?
Out: Not met

In: Has L18A a recorded protein stability index greater than or equal to 2?
Out: Met

In: Does the reported protein stability index for N16Y fall at or above the 2 mark?
Out: Met

In: Please check the record Y22M and state if its protein stability index is at or above 2.
Out: Met

In: Is protein stability index for F1M at or above 2?
Out: Met

In: Please check the record D13W and state if its protein stability index is at or above 2.
Out: Met

In: Exam item: decide whether the reported protein stability index for Y21W is at least 2.
Out: Not met

In: Hi, just wondering whether P14H shows protein stability index of 2 or higher.
Out: Met

In: Confirm if protein stability index reported for the variant F8L is 2 or above.
Out: Not met

In: Item Y22S with protein stability index of 2 or above?
Out: Not met

In: Hi team, for F8Q , is the recorded protein stability index at or above 2?
Out: Not met

In: Record C20T ; criterion: protein stability index no lower than 2. Met?
Out: Met

In: Form field: protein stability index at least 2? Entry: V2R
Out: Met

In: Is protein stability index for T15F at or above 2?
Out: Not met

In: Would you say N16M shows protein stability index at minimum 2?
Out: Met

In: In plain terms: is recorded protein stability index at least 2 for K3H ?
Out: Not met

In: Given L5I , state whether its protein stability index is at least 2.
Out: Not met

In: Answer whether protein stability index of Y22W is greater than or equal to 2.
Out: Met

In: Tell me whether protein stability index is at least 2 here: P14K
Out: Not met

In: Does protein stability index meet or surpass 2 for F8C ?
Out: Not met

In: Say whether W17G shows protein stability index of 2 or more.
Out: Not met

In: Reported protein stability index reaches at least 2 for W17D ?
Out: Not met

In: Is protein stability index at least 2? Consider E24H
Out: Met

In: Please check the record Y23N and state if its protein stability index is at or above 2.
Out: Not met

In: Given P14M , state whether its protein stability index is at least 2.
Out: Not met

In: Decide: protein stability index of E11R >= 2?
Out: Not met

In: Record R19Q ; criterion: protein stability index no lower than 2. Met?
Out: Not met

In: In plain terms: is recorded protein stability index at least 2 for L18D ?
Out: Not met

In: Decide: protein stability index of V2L >= 2?
Out: Not met

In: // inclusive: protein stability index at least 2? input: T15A
Out: Met

In: Is reported protein stability index greater than or equal to 2 here: P14Q
Out: Not met

In: Item N16A with protein stability index of 2 or above?
Out: Not met

In: Decide: protein stability index of V2S >= 2?
Out: Not met

In: In plain terms: is recorded protein stability index at least 2 for I4H ?
Out: Met

In: Threshold query (protein stability index >= 2) on C20R
Out: Met

In: Evaluate P9C : protein stability index at minimum 2?
Out: Not met

In: Kindly determine if protein stability index recorded for W17T is above or exactly 2.
Out: Not met

In: Identify whether the reported protein stability index of the following variant is 2 or greater: N16P
Out: Met

In: Hi, just wondering whether Y22D shows protein stability index of 2 or higher.
Out: Met

In: Can R19W be said to have protein stability index at or above 2?
Out: Not met

In: Could you verify whether the entry P14C shows protein stability index of no less than 2?
Out: Not met

In: Could you verify whether the entry T15K shows protein stability index of no less than 2?
Out: Not met

In: Item E10S with protein stability index of 2 or above?
Out: Not met

In: Textbook exercise: given the entry E24A , state whether its protein stability index is greater than or equal to 2.
Out: Met

In: Textbook exercise: given the entry P14D , state whether its protein stability index is greater than or equal to 2.
Out: Met

In: Identify whether the reported protein stability index of the following variant is 2 or greater: D13Q
Out: Met

In: Textbook exercise: given the entry W17I , state whether its protein stability index is greater than or equal to 2.
Out: Not met

In: API: above_or_equal(metric=protein stability index, cutoff=2) for item E11S
Out: Not met

In: Does K6E have a reported protein stability index of at least 2?
Out: Met

In: Tell me whether protein stability index is at least 2 here: F1H
Out: Met

In: Does protein stability index meet or surpass 2 for C20H ?
Out: Not met

In: Check the entry V2A : does protein stability index equal or exceed 2?
Out: Not met

In: Is it the case that F1R has protein stability index reaching or exceeding 2?
Out: Met

In: Is protein stability index at least 2? Consider R19E
Out: Not met

In: Confirm if protein stability index reported for the variant I4Q is 2 or above.
Out: Met

In: Form field: protein stability index at least 2? Entry: K6M
Out: Not met

In: Check if protein stability index >= 2 (inclusive). Item: R19N
Out: Met

In: Item L18T with protein stability index of 2 or above?
Out: Met

In: Item E24V with protein stability index of 2 or above?
Out: Met

In: Tell me whether protein stability index is at least 2 here: R19S
Out: Not met

In: Kindly determine if protein stability index recorded for R19T is above or exactly 2.
Out: Met
